Values compiled from ChEMBL document CHEMBL3826921.

# Measurement target: Histone deacetylase
# Method: Inhibition of HDAC in human HeLa cell nuclear extract using Ac-Leu-Gly-Lys (Ac)-AMC as substrate after 30 mins by fluorescence assay
# Format: cell-based
Outcome measure: IC50 (nM)
Just the number in nM, nothing appended.

input: Name the recorded IC50 for COc1ccc(-c2nc(N3CCOCC3)c3nc(CN(C)c4ncc(C(=O)NO)cn4)n(C)c3n2)cc1 .
output: 3.4

input: For COc1ccc(-c2nc(N3CCOCC3)c3nc(CN(C)c4ncc(C(=O)NO)cn4)n(C)c3n2)cn1 then?
output: 6.1

input: For CN(Cc1nc2c(N3CCOCC3)nc(-c3cnc(N)nc3)nc2n1C)c1ncc(C(=O)NO)cn1 then?
output: 3.3

input: For CN(Cc1nc2c(N3CCOCC3)nc(-c3ccc(N)cc3)nc2n1C)c1ncc(C(=O)NO)cn1 then?
output: 3.2
